Test target: human CB2 (Homo sapiens (Human), UniProt P34972)
Sequence (P34972 whole entry): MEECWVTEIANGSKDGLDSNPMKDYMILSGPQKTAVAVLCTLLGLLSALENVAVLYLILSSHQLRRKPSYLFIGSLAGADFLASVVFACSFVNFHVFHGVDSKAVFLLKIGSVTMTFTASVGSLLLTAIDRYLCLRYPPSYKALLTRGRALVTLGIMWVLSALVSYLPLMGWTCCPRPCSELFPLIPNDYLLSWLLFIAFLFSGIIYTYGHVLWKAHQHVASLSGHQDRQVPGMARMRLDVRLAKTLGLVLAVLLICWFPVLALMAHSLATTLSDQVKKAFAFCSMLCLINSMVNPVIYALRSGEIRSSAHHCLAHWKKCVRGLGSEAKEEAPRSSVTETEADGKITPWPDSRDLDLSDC
This section presents molecules with their documented pKi values.
# log scale: pKi equals minus log10 of the concentration in mol/L

For orientation, consider the following solved cases.
C#Cc1cccc(C2(C(F)(F)F)N=N2)c1Cn1nc2nc(C(C)(C)C)nc(N3CCC(F)(F)C3)c2n1 = 7.09
C#Cc1cccc(C2(C(F)(F)F)N=N2)c1Cn1nc2nc(C(F)(F)c3ccccc3)nc(N3CCC(F)(F)C3)c2n1 = 5.97
C#CCCC1(CCNC(=O)c2nonc2Cn2nc3nc(C(C)(C)C)nc(N4CCC(F)(F)C4)c3n2)N=N1 = 6.03
C#Cc1cccc(C2(C(F)(F)F)N=N2)c1Cn1nc2nc(C(F)(F)c3ccccc3)nc(N3CC[C@H](O)C3)c2n1 = 6.45
C#CCCC1(CCNC(=O)c2nonc2Cn2nc3nc(C(C)(C)C)nc(N4CC[C@H](O)C4)c3n2)N=N1 = 5.54

Lab note: next molecule to report on.
Item: C#Cc1cccc(C2(C(F)(F)F)N=N2)c1Cn1nc2nc(C(C)(C)C)nc(N3CC[C@H](O)C3)c2n1 | pKi: 7.00

* * *

Heads up, these compounds all have pKi values measured for human CB1 (Homo sapiens (Human)).
pKi: −log10 of the molar value.

C#Cc1cccc(C2(C(F)(F)F)N=N2)c1Cn1nc2nc(C(F)(F)c3ccccc3)nc(N3CC[C@H](O)C3)c2n1 [Example 7] on human CB1 (Homo sapiens (Human)) gives pKi = 5.26

C#Cc1cccc(C2(C(F)(F)F)N=N2)c1Cn1nc2nc(C(C)(C)C)nc(N3CC[C@H](O)C3)c2n1 [Example 6] on human CB1 (Homo sapiens (Human)) gives pKi = < 5.00

C#Cc1cccc(C2(C(F)(F)F)N=N2)c1Cn1nc2nc(C(F)(F)c3ccccc3)nc(N3CCC(F)(F)C3)c2n1 [Example 4] on human CB1 (Homo sapiens (Human)) gives pKi = < 5.00

C#Cc1cccc(C2(C(F)(F)F)N=N2)c1Cn1nc2nc(C(C)(C)C)nc(N3CCC(F)(F)C3)c2n1 [Example 5] on human CB1 (Homo sapiens (Human)) gives pKi = 6.23

C#CCCC1(CCNC(=O)c2nonc2Cn2nc3nc(C(C)(C)C)nc(N4CC[C@H](O)C4)c3n2)N=N1 [Example 3] on human CB1 (Homo sapiens (Human)) gives pKi = < 5.00

C#CCCC1(CCNC(=O)c2nonc2Cn2nc3nc(C(C)(C)C)nc(N4CCC(F)(F)C4)c3n2)N=N1 [Example 2] on human CB1 (Homo sapiens (Human)) gives pKi = < 5.00
